// provenance: paper PMC9663686

- System: human skin
- ASSAY_PROTOCOL: Electrical impedance of human skin in vitro, reversibility
- TEST_PARAMETERS: 24-h application of 1% enhancer (1% Azone, 5% SDS) in 60% PG; mean ± SEM
Marks after values point to notes of the source that are not given here.
OBSERVABLE: impedance 8 h after the sample had been removed

{"COMPOUND": "CCCCCCCCCCCCN1CCCCCC1=O [Azone, N-dodecylazepan-2-one, reference compound]", "TARGET_SYSTEM": "human skin", "MEASUREMENT": "11.2 ± 0.2*^≠+ kΩ×cm^2"}
{"COMPOUND": "CCCCCCCCCCCCOS(=O)(=O)[O-].[Na+] [SDS, sodium dodecyl sulfate, reference compound]", "TARGET_SYSTEM": "human skin", "MEASUREMENT": "5.0 ± 0.3*^≠ kΩ×cm^2"}
{"COMPOUND": "CCCCCCCCCCCCOC(=O)C1CCCN1C(=O)CCC (centres unmarked)", "TARGET_SYSTEM": "human skin", "MEASUREMENT": "18.3 ± 2.5*^+ kΩ×cm^2"}
{"COMPOUND": "CCCCCCCCCCCCOC(=O)C1CCCN1C(C)=O (centres unmarked)", "TARGET_SYSTEM": "human skin", "MEASUREMENT": "8.1 ± 1.7*^≠ kΩ×cm^2"}
{"COMPOUND": "CCCCCCCCCCCCOC(=O)C1CCCN1C(=O)CC (centres unmarked)", "TARGET_SYSTEM": "human skin", "MEASUREMENT": "13.1 ± 0.7*^≠+ kΩ×cm^2"}

====

- ASSAY_PROTOCOL: Diclofenac permeation through human skin in Franz diffusion cells with co-applied enhancer
- Format: in vitro ADME
- TEST_PARAMETERS: pH 7.4; 3% DC in 60% PG, no enhancer; human skin in vitro; read-out: permeability coefficient of DC (converted)
- Description: Donor samples for reversibility and infrared studies contained 1% enhancer in 60% PG. All samples were thoroughly mixed, incubated at 32 °C for 24 h, and, if needed, carefully resuspended before applying on the skin. The effects of the studied enhancers on the solubility of model drugs were assessed as described previously. The permeation-enhancing potencies of the prepared compounds were evaluated on human skin in Franz diffusion cells. […]
OBSERVABLE: Papp at 48 h, 3 %

{"COMPOUND_STRING": "O=C(O)Cc1ccccc1Nc1c(Cl)cccc1Cl", "OBSERVABLE": "Papp at 48 h, 3 %", "MEASUREMENT": "0.0144 ×10⁻⁶ cm/s"}
